test: Cmax in CD-1 mouse liver at 0.1 mg/kg, ip administered as single dose after […] by UPLC-MS/MS method
Assay type: ADME, organism-based
Parameters: dose 0.1 mg/kg, route intraperitoneal
endpoint: Cmax at […] (nM)
Please state the figure in nM; there is no need to write the unit.

Per the record, Cc1oc(-c2ccc(Cl)c(Cl)c2)nc1CN1CCC(C(=O)NCCCN2C[C@H](C)C[C@H](C)C2)CC1 has Cmax at […] of 1110

###

test: Tmax in CD-1 mouse liver at 0.1 mg/kg, ip administered as single dose after 24 hrs by UPLC-MS/MS method
Assay type: ADME, organism-based
endpoint: Tmax (h)
Please state the figure in h; there is no need to write the unit.

Per the record, Cc1oc(-c2ccc(Cl)c(Cl)c2)nc1CN1CCC(C(=O)NCCCN2C[C@H](C)C[C@H](C)C2)CC1 has Tmax of 7
